Numbers sourced from patent EP0185259A2.

Test system: Mäusen
Test: Orientating acute toxicity in mice, single oral dose
Assay type: in vivo
Conditions: single oral dose, observation time 14 days
Listing of entries alongside the reported Orientierende aktute Toxizität.

input.smiles: CN(CCO)c1nc(N2CCNCC2)nc2nc(NCc3ccccc3)cnc12
Orientierende aktute Toxizität: > 250 mg

input.smiles: CN(C)c1nc2nc(N3CCNCC3)nc(N3CCCC3)c2nc1-c1ccccc1
Orientierende aktute Toxizität: > 250 mg

input.smiles: c1ccc(CNc2nc3nc(N4CCNCC4)nc(N4CCSCC4)c3nc2-c2ccccc2)cc1
Orientierende aktute Toxizität: > 250 mg

input.smiles: c1ccc(-c2nc3c(N4CCOCC4)nc(N4CCNCC4)nc3nc2N2CCOCC2)cc1
Orientierende aktute Toxizität: > 250 mg
